Data origin, for the record: ChEMBL document CHEMBL1201862

Test system: NCI-H460
Test: NCI tumour cell line growth inhibition, 48 h
Counter-ions that a name gives are not always drawn. Activity calls are given as the source filed them. Cut-off read from the data, not from the text of the source: active = GI50 up to about 1.1 µM and inactive = higher.
I would appreciate it if you answered using one of these outcomes: true = active, false = inactive

Observe how each entry below is paired with its result.
c1ccc(C(=NNc2nc3ccccc3[nH]2)c2ccccn2)nc1    true
C/C(=N\NC(N)=S)c1ccccn1.OB(O)c1ccccc1    false
CO/N=C(\C(=O)N(C)n1cnnc1)c1csc(NC(c2ccccc2)(c2ccccc2)c2ccccc2)n1    false
Nc1nc2cc(COc3ccc(C(=O)O)cc3)ccc2nc1-c1ccccc1    false
N#Cc1c(=O)c2ccccc2n2ccccc12    false

Could you check what this test reported for NCCc1cc(O)c(O)cc1O [OXIDOPAMINE HYDROCHLORIDE] ?
false

# repeat for Nc1nc(CCl)nc(N2CCOCC2)n1
false

# repeat for [B].c1ccc([Si](OCCN2CC2)(c2ccccc2)c2ccccc2)cc1
false

# repeat for c1ccc(SC2(Sc3ccccc3)CCCC2)cc1
false

# repeat for NS(=O)(=O)c1nnc(NC(=O)CCC(=O)O)s1
false

# repeat for Nn1c(CCCCCCCCc2nnc(COc3ccc(Cl)cc3)n2N)nnc1COc1ccc(Cl)cc1
false

# repeat for O=[N+]([O-])c1cccc(-c2ncc3c(n2)-c2ccccc2C3)c1
false

# repeat for Cc1cccc(-c2cc(O)c3cccnc3n2)c1
true

# repeat for CCOc1ccc(NC(=O)/C(CC(=O)c2c[n+]([O-])c3ccccc3[n+]2[O-])=N\OCCCc2ccccc2)cc1
false

# repeat for Nc1c(S(=O)(=O)O)cc2cc(S(=O)(=O)O)ccc2c1/N=N/c1ccc(-c2ccc(/N=N/c3c(N)c(S(=O)(=O)O)cc4cc(S(=O)(=O)O)ccc34)c(S(=O)(=O)O)c2)cc1
false

###

Test system: NCI-H23
Test: NCI tumour cell line growth inhibition, 48 h
Calls of active or inactive are those of the source. Cut-off read from the data, not from the text of the source: active = GI50 up to about 1.1 µM and inactive = higher.
I would appreciate it if you answered using one of these outcomes: TRUE = active, FALSE = inactive

Observe how each entry below is paired with its result.
COC(=O)CCc1ccc2c(c1)CC1(C2)Cc2ccc3c(c2C1)CCC3 (stereo not drawn)    FALSE
NC(=O)NC1C(C(N)=O)N(Cc2ccccc2)C(=O)N1Cc1ccccc1 (stereo not drawn)    FALSE
CCOC(=O)c1cn(CC)c(=O)n2c1nc1ccccc12    FALSE
Nc1ccc2nc(N)n[n+]([O-])c2c1    FALSE
[N-]=[N+]=CC(=O)OC1CCOCC1    FALSE
Cc1cc(N(CCOS(C)(=O)=O)CCOS(C)(=O)=O)ccc1C=O    FALSE

Could you check what this test reported for COc1ccc(N2C(=O)C3c4[nH]c5ccc(OCc6ccccc6)cc5c4C4CCC(c5ccccc5)CC4C3C2=O)cc1 (stereo not drawn) ?
FALSE

# repeat for CNC(=O)OCc1c(COC(=O)NC)c(-c2ccc(-c3ccccc3)cc2)n(C)c1C
FALSE

# repeat for CN(CCc1ccc(Cl)c(Cl)c1)[C@H]1CCCC[C@H]1N1CCCC1
FALSE

# repeat for OCCSCCCSCCO
FALSE

# repeat for C/C(=N\N(c1ccccc1)c1ccccc1)c1c(O)cc(C)oc1=O
FALSE

# repeat for CC1=C(C(=O)NCc2ccccc2)C(c2ccc([N+](=O)[O-])cc2)C(C(=O)NCc2ccccc2)=C(C)N1
FALSE

###

System: SF-295
Test: NCI tumour cell line growth inhibition, 48 h
Activity calls are given as the source filed them. Cut-off read from the data, not from the text of the source: active = GI50 up to about 1.1 µM and inactive = higher.
I would appreciate it if you answered using one of these outcomes: 1 for active, -1 for inactive

Observe how each entry below is paired with its result.
CN(Cc1cnc2nc(N)nc(N)c2n1)c1ccc(C(=O)NC(CCC(=O)O)C(=O)O)c2ccccc12 (stereo not drawn)    1
Cc1nc2ccc([N+](=O)[O-])cc2c(=O)n1C(=S)Nc1cccc(Cl)c1    -1
CCc1nc(N)nc(N)c1-c1ccc(Cl)c([N+](=O)[O-])c1    1
CN1CC2CN(Cc3ccccc3)CCN2c2cccnc21 (stereo not drawn)    -1
O=C(O)c1nc2cc(C(F)(F)F)ccc2[nH]c1=O    -1

Could you check what this test reported for CCOC(=O)NC(=O)c1cn(C2OC(COC(=O)CCCCCCCCC(=O)OCC3OC(n4cc(C(=O)NC(=O)OCC)c(=O)[nH]c4=O)C(O)C3O)C(O)C2O)c(=O)[nH]c1=O (stereo not drawn) ?
-1

# repeat for O=C(NCCCCCCNC(=O)c1cc(-c2ccccc2)nc2ccccc12)c1cc(-c2ccccc2)nc2ccccc12
-1

# repeat for Cc1cc(N(CCC#N)CCC#N)ccc1C(/N=N\c1ccc(C(=O)O)cc1)=N\NC(=O)c1cc(Cl)ccc1O
-1

# repeat for O=[N+]([O-])c1cccc([N+](=O)[O-])c1Cl
-1

# repeat for Cc1ccc(-c2c(C#N)c(-c3ccccc3)c(C#N)c(=O)n2NS(=O)(=O)c2ccc(C)cc2)cc1
-1

# repeat for Cc1c(F)c(N)c2c(=O)cc(-c3ccc(NC(=O)C(N)CCCNC(=N)N)c(F)c3)oc2c1F (stereo not drawn)
-1

###

System: OVCAR-8
Assay: NCI tumour cell line growth inhibition, 48 h
The source made the active and inactive calls. Rule as the data show it: active = GI50 up to about 1.1 µM and inactive = higher.
I would appreciate it if you answered using one of these outcomes: label 1 for active, label 0 for inactive

Observe how each entry below is paired with its result.
COC(=O)c1cc2c(cc1CC1Cc3cc4c(cc3C1)CCC4)CCC2    label 0
CSc1nc2c(c(N(C)C)n1)C(O)n1c(nc3ccccc31)S2 (centres undefined)    label 0
O=c1n(-c2ccc(Cl)c(Cl)c2)c(=O)n(-c2ccc(Cl)c(Cl)c2)c(=O)n1-c1ccc(Cl)c(Cl)c1    label 0

Could you check what this test reported for Oc1ccc2ccccc2c1/N=N/c1ccc(F)cc1 ?
label 0

###

Tested on: PC-3
Assay: NCI tumour cell line growth inhibition, 48 h
The source made the active and inactive calls. Cut-off read from the data, not from the text of the source: active = GI50 up to about 1.1 µM and inactive = higher.
I would appreciate it if you answered using one of these outcomes: true = active, false = inactive

Observe how each entry below is paired with its result.
O=c1oc2c(ccc3ccccc32)cc1C1=CSC2=NCCN12    false
CC(C)Cc1ccc(C(C)/C=C2\CCC(CN3CCCCC3)C2=O)cc1 (stereo not drawn)    false
CCNc1nc(N)c(C(=O)c2cccs2)s1    false

Could you check what this test reported for COC1(OC)N=C(N)C2(C#N)C3(C(=O)N(C(C)C)N=C3C)C12C#N (stereo not drawn) ?
false

# repeat for Cc1ccc(/N=C2/SC(c3ccc(C)cc3)(c3ccc(C)cc3)c3ccccc32)cc1
false

# repeat for CC(=O)NCC1OC2COC(c3ccccc3)OC2C2N=C(c3ccccc3)OC12 (stereo not drawn)
false

# repeat for COc1cc2c(c(OC)c1OC)-c1c(cc3c(c1OC)OCO3)CC(C)C(C)(O)C2OC(=O)c1ccccc1 (stereo not drawn)
false

# repeat for COc1ccc(-c2nc3cc(F)ccc3s2)cc1O
false

# repeat for c1ccc2c(c1)nc1n2CCCn2ccnc2-1
false

# repeat for COC(=O)CCc1ccc2c(c1)CC1(C2)Cc2ccc3c(c2C1)CCC3 (stereo not drawn)
false

# repeat for CCCCCCc1cc2cc(C(=O)NCc3ccccc3)c(=N)oc2cc1O
false

# repeat for NC1CCCCC1NCCNC1CCCCC1N (stereo not drawn)
false

###

Exercise: state measured GI50 for each of the molecules provided.
Tested on: RXF 393
Assay: NCI tumour cell line growth inhibition, 48 h
Activity calls are given as the source filed them. Cut-off read from the data, not from the text of the source: active = GI50 up to about 1.1 µM and inactive = higher.

Look up GI50 for the entries below, preserving their order.
1. COC(=O)c1cc2c(cc1CC1Cc3cc4c(cc3C1)CCC4)CCC2
2. c1ccc(C(c2ccccc2)[P+](c2ccccc2)(c2ccccc2)c2ccccc2)cc1
3. NS(=O)(=O)c1nnc(NC(=O)CCC(=O)O)s1
4. Cc1cccc(CC(C)(C)C)c1NC(=O)C(=O)C(C(=O)c1ccc2ccccc2c1)C1OC(=O)c2ccccc21 (stereo not given)
5. COCCOC(=O)c1c(C)[n+]([O-])c2cc(Cl)c(Cl)cc2[n+]1[O-]
6. CCOC(=O)C1C(=O)C=C(c2cc(C)ccc2O)CC1c1cccc(Br)c1 (stereo not given)

1. 34 µM (inactive)
2. 2.24 µM (inactive)
3. > 100 µM (inactive)
4. 3.4 µM (inactive)
5. 30.4 µM (inactive)
6. 14.4 µM (inactive)

###

System: RXF 393
Assay: NCI tumour cell line growth inhibition, 48 h
Calls of active or inactive are those of the source. Cut-off read from the data, not from the text of the source: active = GI50 up to about 1.1 µM and inactive = higher.
outcome.measure: GI50

Before answering, review these 8 worked examples.
CC(Oc1ccc(OCC2CCCCC2)cc1)C(=O)OCC(=O)c1ccc(-c2ccccc2)cc1 (configuration not stated)    > 100 µM (inactive)
COc1ccc(/N=N/c2c(O)ccc3ccccc23)cc1    41.2 µM (inactive)
COc1ccccc1NC(=O)CC(=O)N1N=C(N2c3ccccc3Sc3ccccc32)CC1c1ccccc1 (configuration not stated)    > 100 µM (inactive)
COc1cc2c(cc1OC)[C@]1(O)C(=O)c3ccc4c(c3O[C@@H]1CO2)C[C@H](C(C)(C)O)O4    8.3 µM (inactive)
COc1cc2c(cc1OCCCOS(C)(=O)=O)N=C[C@@H]1CCCN1C2=O    > 100 µM (inactive)
Nc1nc(Cl)cc(NCC2(CO)CC(OCc3ccccc3)C2)n1 (configuration not stated)    14.2 µM (inactive)
CCOC(=O)/C(C(=S)Nc1ccccc1)=C(/N)N1CCCC1    63.1 µM (inactive)
COc1ccc2nc3cc(Cl)ccc3c(NCCCCCC(=O)NC(COc3cnc4c(ccc5cccnc54)c3)COc3cnc4c(ccc5cccnc54)c3)c2c1    10.8 µM (inactive)

Look up GI50 for the entries below, preserving their order.
1. Nc1nc(CCl)nc(N2CCOCC2)n1
2. O=C(NCCCCCCNC(=O)c1cc(-c2ccccc2)nc2ccccc12)c1cc(-c2ccccc2)nc2ccccc12
3. N#CC1C2CCC3(CC2CCN1C(=O)c1ccccc1)OCCO3 (configuration not stated)
4. Cc1cccc2c(=O)cc(-c3ccccc3)[nH]c12
5. N#CC(NNC(=O)Cc1ccccc1)c1ccc([N+](=O)[O-])cc1 (configuration not stated)
6. Cc1cccc(C(=O)O)c1C(=O)c1cccc2ccccc12

36.6 µM (inactive)
> 100 µM (inactive)
> 100 µM (inactive)
3.62 µM (inactive)
> 100 µM (inactive)
> 100 µM (inactive)

Look up GI50 for the entries below, preserving their order.
1. O=C1NN(c2ccccc2)C(=O)C2C3c4ccccc4C(c4ccccc43)C12 (configuration not stated)
2. O=C1CC(Cl)c2c1csc2Br (configuration not stated)
3. CC(=O)NNC1=NN(C(C)=O)C2(S1)C(=O)Nc1ccc(C)cc12 (configuration not stated)

["41.1 µM (inactive)", "19 µM (inactive)", "44.9 µM (inactive)"]

Look up GI50 for the entries below, preserving their order.
1. CC(C)N1CSC(=S)N(Cc2ccccc2)C1
2. O=C1c2cc3ccccc3cc2C2(c3ccc(Cl)cc3)NCCN12 (configuration not stated)

1: 2.37 µM (inactive); 2: 21.8 µM (inactive)

Look up GI50 for the entries below, preserving their order.
1. CN1OC(CO)CC12C1CC3CC(C1)CC2C3 (configuration not stated)
2. COC(=O)CCc1ccc2c(c1)CC1(C2)Cc2ccc3c(c2C1)CCC3 (configuration not stated)

1. > 100 µM (inactive)
2. 49.1 µM (inactive)

Entry O=C1c2ccccc2C(=O)c2c1ccc1c2OCO1 : reported GI50 = ?
> 100 µM (inactive)
